- Test system: Bacillus subtilis
- run description: Antibacterial activity against Bacillus subtilis ATCC6633 after 24 hrs by MTT assay
- Assay type: functional
- condition description: ATCC6633, 24 h
MIC by entry:
Supply the numeric figure in µg/mL, leaving out any unit text.

Here is how some compounds turned out for MIC.
Cc1ncc([N+](=O)[O-])n1CC(C)OC(=O)/C=C/c1cccc(Br)c1 (centres undefined); 25
Cc1ncc([N+](=O)[O-])n1CC(C)OC(=O)/C=C/c1ccc(F)cc1 (centres undefined); 50
Cc1ncc([N+](=O)[O-])n1CC(C)OC(=O)/C=C/c1ccc(-c2ccccc2)cc1 (centres undefined); 6.25
NC[C@H]1O[C@H](O[C@H]2[C@H](O)[C@@H](O[C@H]3O[C@H](CO)[C@@H](O)[C@H](N)[C@H]3O)[C@H](N)C[C@@H]2N)[C@H](O)[C@@H](O)[C@@H]1O; 1.56
Cc1ncc([N+](=O)[O-])n1CC(C)OC(=O)/C=C/c1cccc2ccccc12 (centres undefined); 25

Then there is this compound:
QUERY: What value of MIC has been reported for the following compound? Cc1ncc([N+](=O)[O-])n1CC(C)OC(=O)/C=C/c1ccc(Cl)cc1 (centres undefined)
RESULT: 12.5

====

MIC by entry:
- System: Bacillus subtilis
- run description: Antibacterial activity against Bacillus subtilis ATCC6633 after 24 hrs by MTT assay
- Type: functional
- condition description: ATCC6633, 24 h
Supply the numeric figure in µg/mL, leaving out any unit text.

Cc1ncc([N+](=O)[O-])n1CC(C)OC(=O)/C=C/c1ccc(Br)cc1 (configuration not stated); 3.13
Cc1ncc([N+](=O)[O-])n1CC(C)OC(=O)/C=C/c1ccccc1Cl (configuration not stated); 50
Cc1ncc([N+](=O)[O-])n1CC(C)OC(=O)/C=C/c1ccc2ccccc2c1 (configuration not stated); 50
COc1ccc(/C=C/C(=O)OC(C)Cn2c([N+](=O)[O-])cnc2C)cc1 (configuration not stated); 50
Cc1ncc([N+](=O)[O-])n1CC(C)OC(=O)/C=C/c1cccc(F)c1 (configuration not stated); 6.25

QUERY: What value of MIC has been reported for the following compound? Cc1ncc([N+](=O)[O-])n1CC(C)OC(=O)/C=C/c1ccccc1Br (configuration not stated)
RESULT: 50

QUERY: What value of MIC has been reported for the following compound? Cc1ncc([N+](=O)[O-])n1CC(C)OC(=O)/C=C/c1ccc(Cl)cc1Cl (configuration not stated)
RESULT: 6.25

QUERY: What value of MIC has been reported for the following compound? Cc1ncc([N+](=O)[O-])n1CC(C)OC(=O)/C=C/c1ccc(N(C)C)cc1 (configuration not stated)
RESULT: 12.5

QUERY: What value of MIC has been reported for the following compound? Cc1ncc([N+](=O)[O-])n1CC(C)OC(=O)/C=C/c1ccc(OCc2ccccc2)cc1 (configuration not stated)
RESULT: 6.25

====

- system tested: 3-oxoacyl-[acyl-carrier-protein] synthase 3 (Escherichia coli, UniProt C3TDZ2)
- Sequence (C3TDZ2 whole entry): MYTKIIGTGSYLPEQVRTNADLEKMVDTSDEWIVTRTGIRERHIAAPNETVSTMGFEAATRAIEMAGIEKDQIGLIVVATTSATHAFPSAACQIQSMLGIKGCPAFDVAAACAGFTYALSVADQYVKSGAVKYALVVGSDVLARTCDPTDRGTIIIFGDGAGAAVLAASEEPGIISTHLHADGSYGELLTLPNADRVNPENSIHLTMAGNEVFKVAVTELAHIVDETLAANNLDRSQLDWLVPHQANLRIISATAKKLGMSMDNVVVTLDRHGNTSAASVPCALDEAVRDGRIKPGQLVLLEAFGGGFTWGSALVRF
- run description: Inhibition of N-terminal His-tagged Escherichia coli FabH expressed in Escherichia coli BL21 (DE3) using [3H]acetyl-coA after 25 mins by liquid scintillation counting
value kind: pKi
Please keep in mind that pKi is minus log10 of the molar concentration; only the number is needed.

QUERY: Kindly state the measured pKi obtained for COc1cccc(/C=C/C(=O)OC(C)Cn2c([N+](=O)[O-])cnc2C)c1 (stereo unspecified) with 3-oxoacyl-[acyl-carrier-protein] synthase 3 (Escherichia coli, UniProt C3TDZ2).
RESULT: 11.56

====

- system tested: 3-oxoacyl-[acyl-carrier-protein] synthase 3 (Escherichia coli)
pIC50 by entry:
Please keep in mind that pIC50 is minus log10 of the molar concentration; only the number is needed.

Here is how some compounds turned out for pIC50.
O=C(O)/C=C/c1ccccc1; 4.36
Cc1ncc([N+](=O)[O-])n1CC(C)OC(=O)/C=C/c1cccc2ccccc12 (centres undefined); 4.31
Cc1ncc([N+](=O)[O-])n1CC(C)OC(=O)/C=C/c1ccc(Cl)cc1 (centres undefined); 4.46
Cc1ncc([N+](=O)[O-])n1CC(C)OC(=O)/C=C/c1ccc(-c2ccccc2)cc1 (centres undefined); 5.60
Cc1ncc([N+](=O)[O-])n1CC(C)OC(=O)/C=C/c1ccc(Cl)cc1Cl (centres undefined); 5.03
Cc1ncc([N+](=O)[O-])n1CC(C)OC(=O)/C=C/c1ccc(OCc2ccccc2)cc1 (centres undefined); 5.17
Cc1ncc([N+](=O)[O-])n1CC(C)OC(=O)/C=C/c1ccc(N(C)C)cc1 (centres undefined); 4.70
Cc1ncc([N+](=O)[O-])n1CC(C)OC(=O)/C=C/c1cccc(F)c1 (centres undefined); 5.09

Then there is this compound:
QUERY: What value of pIC50 has been reported for the following compound? Cc1ncc([N+](=O)[O-])n1CC(C)OC(=O)/C=C/c1cccc(Br)c1 (centres undefined)
RESULT: 4.56

====

- Test system: Bacillus subtilis
- run description: Antibacterial activity against Bacillus subtilis ATCC6633 after 24 hrs by MTT assay
- Type: functional
- condition description: ATCC6633, 24 h
MIC by entry:

Here is how some compounds turned out for MIC.
Cc1ncc([N+](=O)[O-])n1CC(C)OC(=O)/C=C/c1ccccc1F (stereo not drawn); > 100 µg/mL
Cc1ncc([N+](=O)[O-])n1CC(C)OC(=O)/C=C/c1ccccc1 (stereo not drawn); > 100 µg/mL

Then there is this compound:
QUERY: What value of MIC has been reported for the following compound? Cc1ncc([N+](=O)[O-])n1CC(C)OC(=O)/C=C/c1cccs1 (stereo not drawn)
RESULT: > 100 µg/mL

====

- Test system: Bacillus subtilis
- run description: Antibacterial activity against Bacillus subtilis ATCC6633 after 24 hrs by MTT assay
- Format: functional
- condition description: ATCC6633, 24 h
value kind: MIC

Here is how some molecules turned out for MIC.
COc1ccccc1/C=C/C(=O)OC(C)Cn1c([N+](=O)[O-])cnc1C (stereo not drawn); > 100 µg/mL
Cc1ccc(/C=C/C(=O)OC(C)Cn2c([N+](=O)[O-])cnc2C)cc1 (stereo not drawn); > 100 µg/mL

QUERY: What value of MIC has been reported for the following molecule? COc1cccc(/C=C/C(=O)OC(C)Cn2c([N+](=O)[O-])cnc2C)c1 (stereo not drawn)
RESULT: > 100 µg/mL

Source listed as ChEMBL document CHEMBL1806404.
